method-description: qHTS for Inhibitors of human tyrosyl-DNA phosphodiesterase 1 (TDP1): qHTS in cells in presence of CPT; also: nearly all actives have a fitted effect of over 55% in size
run-conditions: chicken DT40 Tdp1-/-;hTDP1 cells + 20 nM CPT, ATP luminescence, 48 h; series mostly up to 46.2 µM
The whole screen tested about 420,000 compounds, of which about 50,000 (12%) were called active. About 26% were inconclusive and are not listed. Calls follow the shape of the dose curve; as a rule, active = well fitted inhibition curve with a large enough effect; inconclusive = small, poorly fitted or top-dose-only effect; inactive = flat fitted curve, though single readings scatter. The entries come from a sample that favours actives as a whole.
Outcome codes: active, inactive

INSERT INTO assay_data (compound, assigned_category) VALUES
  ('CCN(C(=O)CSc1nnc(-c2ccncc2)o1)c1ccccc1', 'inactive'),
  ('COc1ccc(CCNc2nc3ccc(C)cc3n3cnnc23)cc1OC', 'active'),
  ('O=C(Cc1ccc([N+](=O)[O-])cc1)NCCc1ccc2c(c1)OCO2', 'inactive'),
  ('COc1ccc(N)cc1NC(=O)CN1CCOCC1', 'inactive'),
  ('CC(=O)N1CCOc2ccc(S(=O)(=O)N3CCC(C(=O)Nc4ccccc4F)CC3)cc21', 'inactive'),
  ('FC(F)(F)c1cccc(Nc2ncnc3ccccc23)c1', 'active'),
  ('CCOc1ccc(OCC)c(Nc2nc3ccccc3n3nnnc23)c1', 'inactive'),
  ('Cc1ccc(-c2ccc(CCC(=O)O)n2-c2ccc(C(N)=O)cc2)cc1', 'inactive'),
  ('CCOc1ccc(Nc2oc(/C=C/c3ccc(F)cc3)nc2C#N)cc1', 'inactive'),
  ('CC(C)(C)c1cc(=O)n2c(nc3ccccc32)[nH]1', 'inactive'),
  ('COC(=O)c1ccccc1NC(=O)CSc1nc2c(c(=O)[nH]1)CCC2', 'inactive'),
  ('CNC(=O)NC(=O)C(C)N1CCN(C/C=C/c2ccccc2)CC1 (stereo not drawn)', 'inactive'),
  ('FC(F)(F)c1cccc(N/N=C/c2ccccc2)c1', 'inactive');
